Entries annotated with measured viability at 28.5 h, 10 µM
# assay_text: in vitro
# details: human, hela cells, % viability

- compound: "Cc1ccc(CSCc2nc3ccccc3[nH]2)cc1 [CBK265238]"
  units_label: "%"
  viability at 28.5 h, 10 µM: 90
- compound: "COc1ccc(-c2ccc(C(=O)N(C)C)c(N(C)C(C)=O)n2)cc1 [CBK076500]"
  units_label: "%"
  viability at 28.5 h, 10 µM: 99.1
- compound: "COc1ccc(-c2cc(-c3ccccc3)nc(N/N=C/c3ccc(O)c(C)c3O)n2)cc1 [CBK261721]"
  units_label: "%"
  viability at 28.5 h, 10 µM: 101
- compound: "COC(=O)[C@@H]1Cc2ncn(Cc3ccc(Cl)cc3)c2CN1C(=O)c1ccc(OC)cc1 [CBK288983]"
  units_label: "%"
  viability at 28.5 h, 10 µM: 84.2
- compound: "CCN(CC)CCSc1nc2sc3c(c2c(=O)n1-c1ccc(OC)cc1)CCCC3 [CBK263308]"
  units_label: "%"
  viability at 28.5 h, 10 µM: 89.3
- compound: "OC(COc1ccc(F)cc1)CN1CCN(c2nc(-c3ccccc3)ns2)CC1 (stereo not shown) [CBK074698]"
  units_label: "%"
  viability at 28.5 h, 10 µM: 91.8
- compound: "CC(=O)c1ccc(-c2nccnc2N2CCCC2CO)s1 (stereo not shown) [CBK037483]"
  units_label: "%"
  viability at 28.5 h, 10 µM: 113
- compound: "O=C(Nc1ccccc1N1CCNCC1)C1(c2ccccc2)CCCCC1 [CBK028281T]"
  units_label: "%"
  viability at 28.5 h, 10 µM: 99.9
- compound: "CCc1nc2c(OCCOc3ccccc3)cccn2c1N(C=O)CC(=O)N(C)C [CBK147510]"
  units_label: "%"
  viability at 28.5 h, 10 µM: 96.5
- compound: "CN1CCN(c2ccc([N+](=O)[O-])c(NCCCO)c2)CC1 [CBK261846C]"
  units_label: "%"
  viability at 28.5 h, 10 µM: 86.5
- compound: "COC(=O)Nc1ccc2c(c1)N(C(=O)CCN1CCOCC1)c1ccccc1CC2 [CBK261284C]"
  units_label: "%"
  viability at 28.5 h, 10 µM: 95.9
- compound: "COc1ccc(NC(=O)c2ccc3nsnc3c2)cc1 [CBK263160]"
  units_label: "%"
  viability at 28.5 h, 10 µM: 92.6
- compound: "COCC1(C(=O)N2CC(=O)N(c3ccccc3C#N)CC2C)CCC1 (stereo not shown) [CBK307159]"
  units_label: "%"
  viability at 28.5 h, 10 µM: 89
- compound: "CC(=O)Nc1cc(C(=O)NCc2ccc(F)cc2)ccc1Sc1ccc(Cl)cc1 [CBK294468]"
  units_label: "%"
  viability at 28.5 h, 10 µM: 96.2
- compound: "Cc1nc(SCc2cccc(C(=O)O)c2)nc2c1CCCC2 [CBK266997]"
  units_label: "%"
  viability at 28.5 h, 10 µM: 87.3
- compound: "Cc1ccc2nc(-c3ccc(/N=C/c4ccc(/C=N/c5ccc(-c6nc7ccc(C)cc7s6)cc5)cc4)cc3)sc2c1 [CBK261661]"
  units_label: "%"
  viability at 28.5 h, 10 µM: 87.1
- compound: "OCCN(CCO)Cc1c(Cl)cccc1Cl [CBK261887]"
  units_label: "%"
  viability at 28.5 h, 10 µM: 93
- compound: "COc1ccccc1Cc1cccc(C2CCN(C(=O)c3ccc(F)cc3)CC2)n1 [CBK286237]"
  units_label: "%"
  viability at 28.5 h, 10 µM: 108
- compound: "CSCCC(=O)Nc1cccc2[nH]ccc12 [CBK159655]"
  units_label: "%"
  viability at 28.5 h, 10 µM: 105

Every entry's value here was drawn from paper PMC12040169.
